Examples of compounds with documented pIC50 follow.
# Test system: Caco-2
# Assay Info: Antiproliferative activity against human Caco2 cells assessed as reduction in cell viability after 48 hrs by MTT assay
# Assay type: functional, cell-based
# Stated Conditions: Caco-2, 48 h
pIC50: −log10 of the molar value.

- Compound: "COc1cccc2c1C(=O)c1c(O)c3c(c(O)c1C2=O)C[C@@](O)(C(=O)CO)C[C@@H]3O[C@H]1C[C@H](N)[C@H](O)[C@H](C)O1 [DOXORUBICIN]"
  pIC50: "5.00 to 6.00"
- Compound: "O=C(Cn1cc(CO)nn1)N1CCN(c2nc3ccccc3s2)CC1"
  pIC50: "3.81 to 4.48"
- Compound: "O=C(Cn1cc(C(O)c2ccccc2)nn1)N1CCN(c2nc3ccccc3s2)CC1 (stereo unspecified)"
  pIC50: "3.81 to 4.48"
- Compound: "O=C(Cn1cc(C(O)(c2ccccc2)c2ccccc2)nn1)N1CCN(c2nc3ccccc3s2)CC1"
  pIC50: "3.81 to 4.48"
- Compound: "O=C(Cn1cc(CCCO)nn1)N1CCN(c2nc3ccccc3s2)CC1"
  pIC50: "4.32 to 4.48"
- Compound: "CCOC(=O)c1cn(CC(=O)N2CCN(c3nc4ccccc4s3)CC2)nn1"
  pIC50: "3.81 to 4.48"

====

# Tested on: HT-29
# Assay Info: Antiproliferative activity against human HT-29 cells by MTT assay
# Type: functional, cell-based

- Compound: "C=CCC1CN2CCC1CC2[C@H](O)c1cc(-c2cn(-c3ccccc3)nn2)nc2ccc(OC)cc12 (some centres undefined)"
  Target System: "HT-29"
  IC50: "0.53 to 6.4 µM"
- Compound: "C=CCC1CN2CCC1CC2[C@H](O)c1cc(-c2cn(-c3ccc(O)cc3)nn2)nc2ccc(OC)cc12 (some centres undefined)"
  Target System: "HT-29"
  IC50: "0.53 to 14.6 µM"
- Compound: "C=CCC1CN2CCC1CC2[C@H](O)c1ccnc2ccc(-c3cn(-c4ccccc4)nn3)cc12 (some centres undefined)"
  Target System: "HT-29"
  IC50: "0.53 to 14.6 µM"
- Compound: "C=CCC1CN2CCC1CC2[C@@H](c1ccnc2ccc(OC)cc12)n1cc(-c2ccc3ccccc3n2)nn1 (some centres undefined)"
  Target System: "HT-29"
  IC50: "0.53 to 14.6 µM"

====

Examples of molecules with documented pIC50 follow.
# Test system: HL-60
# Assay Info: Antiproliferative activity against human HL60 cells assessed as reduction in cell viability after 24 hrs by MTT assay
# Type: functional, cell-based
# Stated Conditions: HL-60, 24 h
pIC50: −log10 of the molar value.
Observation Type: pIC50

- Chemical String: "COc1ccc(-c2cn(C3=CC(=O)c4ccccc4C3=O)nn2)cc1"
  Result: "4.00 to 4.84"
- Chemical String: "O=C1C=C(n2cc(-c3ccccc3)nn2)C(=O)c2ccccc21"
  Result: "4.00 to 4.84"

====

# Test system: A-431
# Assay Info: Antiproliferative activity against human A431 cells assessed as reduction in cell viability after 72 hrs by MTT assay
# Assay type: functional, cell-based
# Stated Conditions: A-431, 72 h

- Chemical String: "CCc1ccc(-c2cn([C@H]3C[C@H]4[C@@H]5CCc6cc(OCc7ccccc7)ccc6[C@H]5CC[C@@]4(C)[C@@H]3O)nn2)cc1"
  IC50: "2.4 to 8.3 µM"
- Chemical String: "CC(C)(C)c1ccc(-c2cn([C@H]3C[C@H]4[C@@H]5CCc6cc(OCc7ccccc7)ccc6[C@H]5CC[C@@]4(C)[C@@H]3O)nn2)cc1"
  IC50: "2.4 to 8.3 µM"

====

# Tested on: MCF7
# Assay Info: cells
# Assay type: functional, cell-based
# Stated Conditions: Homo sapiens
# Description: Antiproliferative activity against human MCF7 cells by MTT assay
Examples of compounds with documented IC50 follow.

- Compound: "C[C@H]1[C@@H](OCc2cn(-c3ccc(C(=O)N4CCOCC4)cc3)nn2)O[C@@H]2O[C@@]3(C)CC[C@H]4[C@H](C)CC[C@@H]1[C@@]24OO3"
  IC50: "2.5 to 176 µM"
- Compound: "COc1ccc(Cn2cc(Cn3c4ccccc4c(=O)c4cc(OC)ccc43)nn2)cc1"
  IC50: "11 to 16.6 µM"
- Compound: "Cc1c(C2=NN(C(=S)NCc3ccccc3)C(c3ccccc3)C2)nnn1-c1ccc(-n2nnc(C3=NN(C(=S)NCc4ccccc4)C(c4ccccc4)C3)c2C)cc1 (stereo unspecified)"
  IC50: "43.5 µg/mL"
- Compound: "COc1cc([C@@H]2c3cc4c(cc3[C@H](O)[C@H]3COC(=O)[C@H]23)OCO4)cc(OC)c1OC [PODOFILOX]"
  IC50: "3.06 to 34.4 µM"
- Compound: "C[C@H]1[C@@H](OCc2cn(-c3ccc(C(=O)N4CCN(C)CC4)cc3)nn2)O[C@@H]2O[C@@]3(C)CC[C@H]4[C@H](C)CC[C@@H]1[C@@]24OO3"
  IC50: "2.5 to 176 µM"
- Compound: "C[C@H]1[C@@H](O)O[C@@H]2O[C@@]3(C)CC[C@H]4[C@H](C)CC[C@@H]1[C@@]24OO3 [ARTENIMOL]"
  IC50: "39.9 to 84.3 µM"
- Compound: "CCN(CC)C(=O)c1cccc(-n2cc(CO[C@H]3O[C@@H]4O[C@@]5(C)CC[C@H]6[C@H](C)CC[C@@H]([C@H]3C)[C@@]46OO5)nn2)c1"
  IC50: "2.5 to 176 µM"
- Compound: "Cc1ccc(Cn2cc(CSc3nc(Nc4ccccc4)c4ccccc4n3)nn2)cc1"
  IC50: "0.57 to 7.13 µM"
- Compound: "C[C@H]1[C@@H](OCc2cn(-c3ccc(C(=O)N4CCCC4)cc3)nn2)O[C@@H]2O[C@@]3(C)CC[C@H]4[C@H](C)CC[C@@H]1[C@@]24OO3"
  IC50: "2.5 to 176 µM"
- Compound: "CCN1CCN(C(=O)c2cccc(-n3cc(CO[C@H]4O[C@@H]5O[C@@]6(C)CC[C@H]7[C@H](C)CC[C@@H]([C@H]4C)[C@@]57OO6)nn3)c2)CC1"
  IC50: "2.5 to 176 µM"
- Compound: "CC[C@H]1OC(=O)[C@H](C)[C@@H](O[C@H]2C[C@@](C)(OC)[C@@](C)(CN(C)Cc3ccc(-c4cn(CCCCCCC(=O)NO)nn4)cc3)[C@H](C)O2)[C@H](C)[C@@H](O)[C@](C)(OC)C[C@@H](C)C(=O)[C@H](C)[C@@H](O)[C@]1(C)O"
  IC50: "0.69 µM"
- Compound: "CN(C)CCOc1ccc(/C(=C(/CCCl)c2ccccc2)c2ccccc2)cc1 [TOREMIFENE]"
  IC50: "7 µM"
- Compound: "CC1CCN(C(=O)c2ccc(-n3cc(CO[C@H]4O[C@@H]5O[C@@]6(C)CC[C@H]7[C@H](C)CC[C@@H]([C@H]4C)[C@@]57OO6)nn3)cc2)CC1"
  IC50: "2.5 to 4.7 µM"
- Compound: "C[C@@H]1CC[C@H]2C[C@@H](OCc3cn(-c4ccnc5cc(Cl)ccc45)nn3)O[C@@H]3O[C@@]4(C)CC[C@@H]1[C@@]23OO4"
  IC50: "5.7 to 19.5 µM"
- Compound: "C=CCC1CN2CCC1CC2[C@@H](c1ccnc2ccc(OC)cc12)n1cc(-c2ccc3ccccc3n2)nn1 (stereo partly specified)"
  IC50: "0.53 to 14.6 µM"
- Compound: "COc1ccc(-n2cc(Cn3c(=O)sc4cc(Br)ccc43)nn2)cc1"
  IC50: "17.5 µM"
- Compound: "COc1cc([C@@H]2c3cc4c(cc3[C@H](NC(=O)c3cn(-c5ccc(Cl)cc5)nn3)[C@H]3COC(=O)[C@H]23)OCO4)cc(OC)c1OC"
  IC50: "0.7 to 1.21 µM"
- Compound: "COc1ccc2[nH]cc(Cn3cc(COc4ccc(/C=C/C(=O)NO)cc4OC)nn3)c2c1"
  IC50: "3.57 to 6.21 µM"
- Compound: "CC/C(=C(\\c1ccccc1)c1ccc(OCCN(C)C)cc1)c1ccccc1 [TAMOXIFEN]"
  IC50: "10.9 to 18.6 µM"
- Compound: "COc1ccc(-c2ccc3c(c2)OCC(=O)N3Cc2cn(-c3cc(Cl)cc(Cl)c3)nn2)cc1"
  IC50: "21.8 µM"
- Compound: "CCN(CC)C(=O)c1ccc(-n2cc(CO[C@H]3O[C@@H]4O[C@@]5(C)CC[C@H]6[C@H](C)CC[C@@H]([C@H]3C)[C@@]46OO5)nn2)cc1"
  IC50: "2.5 to 176 µM"
- Compound: "CCN1CCN(C(=O)c2ccc(-n3cc(CO[C@H]4O[C@@H]5O[C@@]6(C)CC[C@H]7[C@H](C)CC[C@@H]([C@H]4C)[C@@]57OO6)nn3)cc2)CC1"
  IC50: "2.5 to 176 µM"
- Compound: "C[C@H]1[C@@H](OCc2cn(-c3ccc(C(=O)N4CCCCC4)cc3)nn2)O[C@@H]2O[C@@]3(C)CC[C@H]4[C@H](C)CC[C@@H]1[C@@]24OO3"
  IC50: "2.5 to 176 µM"
- Compound: "C[C@H]1[C@@H](OCc2cn(-c3cccc(C(=O)N4CCCC4)c3)nn2)O[C@@H]2O[C@@]3(C)CC[C@H]4[C@H](C)CC[C@@H]1[C@@]24OO3"
  IC50: "2.5 to 176 µM"
- Compound: "Cc1c(C(F)(F)F)cc(Cl)c(Cl)c1-n1nnc(-c2nn(-c3ccccc3)cc2C=O)c1C"
  IC50: "6.8 to 27.6 µM"
- Compound: "COC(=O)c1ccc(-c2cn(CC(=O)O[C@H]3c4cc5c(cc4[C@@H](c4cc(OC)c(OC)c(OC)c4)[C@H]4C(=O)OC[C@@H]43)OCO5)nn2)cc1"
  IC50: "21.1 to 124 µM"

Data provenance: ChEMBL document CHEMBL4342418
